Values were extracted from patent US20040180823A1.

- Tgt: T1, histidine-tagged mouse EphA2 Fc fusion protein (R&D Systems) (mouse, UniProt Q03145 26-535, limits assumed)
- T1 construct: Bought; not shown: Fc portion and histidine tag
- Test details: SPR (BIAcore 3000), EphA2 Fc coupled to chip, equilibrium binding
Ends that are not written are not given here.
Reported endpoint: Kd

[
  {
    "Binder": "SWLAYPGAVSYRGSGSK (also: biotinylated, position not given here) [SWL peptide (synthetic, biotinylated)]",
    "Reported endpoint": "Kd",
    "Measured result": "678 nM"
  }
]
